System: K98450-129-R-PDC multicell spheroids, viability;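 further: spheroids exposed to agents for seven days before read-out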
Assay: Anticancer human tumor K98450-129-R-PDC patient-derived colon adenocarcinoma cell line growth inhibition [PI3K]
Details: second compound 0.0316 µM; first compound 0.1 µM; hits give low values
Measured Attribute: viability, T/C (%)
Give bare numbers, in %.

For orientation, consider the following solved cases.
Cn1ncnc1[C@H]1c2n[nH]c(=O)c3cc(F)cc(c23)N[C@@H]1c1ccc(F)cc1 + COc1c(OCCCN2CCOCC2)ccc2c3n(c(=NC(=O)c4cnc(N)nc4)nc12)CCN3 ... 70.1
Cn1ncc(Cl)c1-c1cc(C(=O)NC(CN)Cc2cccc(F)c2)sc1Cl (configuration not stated) + Cc1nc(NC(=O)N2CCCC2C(N)=O)sc1-c1ccnc(C(C)(C)C(F)(F)F)c1 ... 95
Cn1ncnc1[C@H]1c2n[nH]c(=O)c3cc(F)cc(c23)N[C@@H]1c1ccc(F)cc1 + CC(Nc1ccc2c(c1)OCCn1cc(N3C(=O)OCC3C(F)F)nc1-2)C(N)=O ... 96.9
CC(=O)c1c(C)c2cnc(Nc3ccc(N4CCNCC4)cn3)nc2n(C2CCCC2)c1=O + COc1c(OCCCN2CCOCC2)ccc2c3n(c(=NC(=O)c4cnc(N)nc4)nc12)CCN3 ... 70.4
CC1(C)CCC(Nc2ncc(C(F)(F)F)c(-c3c[nH]c4c(P(C)(C)=O)c(C#N)ccc34)n2)CN1 (configuration not stated) + Cc1nc(NC(=O)N2CCCC2C(N)=O)sc1-c1ccnc(C(C)(C)C(F)(F)F)c1 ... 101

// input: 8 molecules below; output: viability, T/C for each
1. Cn1nccc1Nc1nccc(-c2ccn(C(CO)c3ccc(Cl)c(F)c3)c(=O)c2)n1 (configuration not stated) + CC(Nc1ncnc2nc[nH]c12)c1cc2cccc(Cl)c2c(=O)n1-c1ccccc1
2. CCN1CCN(Cc2ccc(Nc3ncc(F)c(-c4cc(F)c5nc(C)n(C(C)C)c5c4)n3)nc2)CC1 + CC(Nc1ncnc2nc[nH]c12)c1cc2cccc(Cl)c2c(=O)n1-c1ccccc1
3. CNC(=O)c1ccc(N2C(=S)N(c3ccc(C#N)c(C(F)(F)F)c3)C(=O)C2(C)C)cc1F + COc1c(OCCCN2CCOCC2)ccc2c3n(c(=NC(=O)c4cnc(N)nc4)nc12)CCN3
4. CC(=O)c1c(C)c2cnc(Nc3ccc(N4CCNCC4)cn3)nc2n(C2CCCC2)c1=O + CC(Nc1ccc2c(c1)OCCn1cc(N3C(=O)OCC3C(F)F)nc1-2)C(N)=O
5. CC(C)n1nc(-c2ccc3oc(N)nc3c2)c2c(N)ncnc21 + CC(Nc1ncnc2nc[nH]c12)c1cc2cccc(Cl)c2c(=O)n1-c1ccccc1
6. CC(Cn1ccc(-c2ccc(C#N)c(Cl)c2)n1)NC(=O)c1cc(C(C)O)[nH]n1 (configuration not stated) + CC(Nc1ccc2c(c1)OCCn1cc(N3C(=O)OCC3C(F)F)nc1-2)C(N)=O
7. C[C@@H](NC(=O)c1ncnc(N)c1Cl)c1ncc(C(=O)Nc2cc(C(F)(F)F)c(Cl)cn2)s1 + COc1c(OCCCN2CCOCC2)ccc2c3n(c(=NC(=O)c4cnc(N)nc4)nc12)CCN3
8. CCN1CCN(Cc2ccc(Nc3ncc(F)c(-c4cc(F)c5nc(C)n(C(C)C)c5c4)n3)nc2)CC1 + Cc1nc(NC(=O)N2CCCC2C(N)=O)sc1-c1ccnc(C(C)(C)C(F)(F)F)c1

[reply]
1: 102; 2: 83.5; 3: 96.9; 4: 95.6; 5: 84.6; 6: 109; 7: 96; 8: 91.1
